Items are presented alongside their recorded Amount of dissolved compound (wt %), Cyclohexanone.
Experiment: Evaluation 1: Solubility Measurement (dissolution state in dilution solvents)
Format: physicochemical
Settings: solvent cyclohexanone added to 0.5 g of compound; stirred at 25° C. and 100 rpm for one hour
Procedure: Evaluation 1: Solubility Measurement Dilution solvents (MeOH, CH2Cl2, cyclohexanone) were respectively added to 0.5 g of the compounds represented by Chemical Formula 6-1 to Chemical Formula 17-2 and the compound represented by Chemical Formula X-1, and each solution was stirred with Mixrotar VMR-5 (Iuchi Seieido Co., Ltd.) at 25° C. and 100 rpm for one hour.

Known results for compounds:
INSERT INTO results (compound, result_value) VALUES
  ('C=C(C)C(=O)OCCNC(=O)OCCN(CC)c1ccc2c(-c3ccccc3S(=O)(=O)[N-]S(=O)(=O)C(F)(F)F)c3cc/c(=[N+](\CC)c4ccccc4)cc-3oc2c1', '>3% wt %'),
  ('C=C(C)C(=O)OCCNC(=O)OCCN(CC)c1ccc2c(-c3ccccc3S(=O)(=O)[O-])c3cc/c(=[N+](\CCOC(=O)NCCOC(=O)C(=C)C)c4ccccc4)cc-3oc2c1', '>5% wt %'),
  ('C=C(C)C(=O)OCCNC(=O)OCCN(CC)c1ccc2c(-c3ccccc3S(=O)(=O)[O-])c3ccc(=[N+](CC)CC)cc-3oc2c1', '>3% wt %'),
  ('CCN(CCOC(=O)NC1CCCCC1)c1ccc2c(-c3ccccc3S(=O)(=O)[N-]S(=O)(=O)C(F)(F)F)c3ccc(=[N+](CC)CC)cc-3oc2c1', '>1% wt %');

Shift focus to the following entry.
compound "CCN(CCOC(=O)NC1CCCCC1)c1ccc2c(-c3ccccc3S(=O)(=O)[N-]S(=O)(=O)C(F)(F)F)c3cc/c(=[N+](/CC)CCOC(=O)NC4CCCCC4)cc-3oc2c1" , Amount of dissolved compound (wt %), Cyclohexanone observed: >3% wt %

----------
Test: Evaluation 1: Solubility Measurement (dissolution state in dilution solvents)
Assay type: physicochemical
Settings: solvent cyclohexanone added to 0.5 g of compound; stirred at 25° C. and 100 rpm for one hour
Description: Evaluation 1: Solubility Measurement Dilution solvents (MeOH, CH2Cl2, cyclohexanone) were respectively added to 0.5 g of the compounds represented by Chemical Formula 6-1 to Chemical Formula 17-2 and the compound represented by Chemical Formula X-1, and each solution was stirred with Mixrotar VMR-5 (Iuchi Seieido Co., Ltd.) at 25° C. and 100 rpm for one hour.
readout.kind: Amount of dissolved compound (wt %), Cyclohexanone

Check out these entries, answers already filled in.
INSERT INTO assay_data (compound, result_value) VALUES
  ('CCN(CCOC(=O)Nc1ccccc1)c1ccc2c(-c3ccccc3S(=O)(=O)[O-])c3cc/c(=[N+](/CC)CCOC(=O)Nc4ccccc4)cc-3oc2c1 [Chemical Formula 13-1]', '>3% wt %'),
  ('C=C(C)C(=O)OCCNC(=O)OCCN(CC)c1ccc2c(-c3ccccc3S(=O)(=O)[N-]S(=O)(=O)C(F)(F)F)c3cc/c(=[N+](\CCOC(=O)NCCOC(=O)C(=C)C)c4ccccc4)cc-3oc2c1 [Chemical Formula 12-2]', '>5% wt %'),
  ('CCN(CCOC(=O)Nc1ccccc1)c1ccc2c(-c3ccccc3S(=O)(=O)[O-])c3ccc(=[N+](CC)CC)cc-3oc2c1 [Chemical Formula 9-1]', '>1% wt %'),
  ('C=C(C)C(=O)OCCNC(=O)OCCN(CCCC)c1ccc2c(-c3ccccc3S(=O)(=O)[N-]S(=O)(=O)C(F)(F)F)c3cc/c(=[N+](/CCCC)CCOC(=O)NCCOC(=O)C(=C)C)cc-3oc2c1 [Chemical Formula 11-2]', '>5% wt %');

Now for another entry.
# compound CCN(CC)c1ccc2c(-c3ccccc3S(=O)(=O)O)c3ccc(=[N+](CC)CC)cc-3oc2c1 [Chemical Formula X-1, reference compound] ; its Amount of dissolved compound (wt %), Cyclohexanone = <1% wt %

----------
Assay: Evaluation 1: Solubility Measurement (dissolution state in dilution solvents)
Assay type: physicochemical
Details: solvent cyclohexanone added to 0.5 g of compound; stirred at 25° C. and 100 rpm for one hour
readout.kind: Amount of dissolved compound (wt %), Cyclohexanone

For orientation, consider the following solved cases.
INSERT INTO assay_data (compound, result_value) VALUES
  ('C=CC(=O)OCCNC(=O)OCCN(CC)c1ccc2c(-c3ccccc3S(=O)(=O)[O-])c3cc/c(=[N+](/CC)CCOC(=O)NCCOC(=O)C=C)cc-3oc2c1', '>5% wt %'),
  ('CCN(CCOC(=O)Nc1ccccc1)c1ccc2c(-c3ccccc3S(=O)(=O)[N-]S(=O)(=O)C(F)(F)F)c3ccc(=[N+](CC)CC)cc-3oc2c1', '>1% wt %'),
  ('C=C(C)C(=O)OCCNC(=O)OCCN(CCCC)c1ccc2c(-c3ccccc3S(=O)(=O)[O-])c3cc/c(=[N+](\CC)CCCC)cc-3oc2c1', '>3% wt %');

Quick note, Amount of dissolved compound (wt %), Cyclohexanone for "CCN(CCOC(=O)NC1CCCCC1)c1ccc2c(-c3ccccc3S(=O)(=O)[O-])c3cc/c(=[N+](/CC)CCOC(=O)NC4CCCCC4)cc-3oc2c1" landed at >3% wt %

Short answer for "C=C(C)C(=O)OCCNC(=O)OCCN(CC)c1ccc2c(-c3ccccc3S(=O)(=O)[N-]S(=O)(=O)C(F)(F)F)c3ccc(=[N+](CC)CC)cc-3oc2c1" : Amount of dissolved compound (wt %), Cyclohexanone was >3% wt %

Data point: "C=C(C)c1cccc(C(C)(C)NC(=O)OCCN(CC)c2ccc3c(-c4ccccc4S(=O)(=O)[N-]S(=O)(=O)C(F)(F)F)c4cc/c(=[N+](/CC)CCOC(=O)NC(C)(C)c5cccc(C(=C)C)c5)cc-4oc3c2)c1" ; Amount of dissolved compound (wt %), Cyclohexanone = >5% wt %

# compound "CCN(CCOC(=O)NC1CCCCC1)c1ccc2c(-c3ccccc3S(=O)(=O)[O-])c3ccc(=[N+](CC)CC)cc-3oc2c1" ; its Amount of dissolved compound (wt %), Cyclohexanone = >1% wt %

----------
Assay: Evaluation 1: Solubility Measurement (dissolution state in dilution solvents)
Format: physicochemical
Conditions: solvent cyclohexanone added to 0.5 g of compound; stirred at 25° C. and 100 rpm for one hour
Readings of Amount of dissolved compound (wt %), Cyclohexanone for the listed compounds

Example cases with answers are listed next.
INSERT INTO assay_data (compound, result_value) VALUES
  ('C=C(C)C(=O)OCCNC(=O)OCCN(CC)c1ccc2c(-c3ccccc3S(=O)(=O)[N-]S(=O)(=O)C(F)(F)F)c3cc/c(=[N+](/CC)CCOC(=O)NCCOC(=O)C(=C)C)cc-3oc2c1', '>5% wt %'),
  ('CCN(CCOC(=O)Nc1ccccc1)c1ccc2c(-c3ccccc3S(=O)(=O)[N-]S(=O)(=O)C(F)(F)F)c3cc/c(=[N+](/CC)CCOC(=O)Nc4ccccc4)cc-3oc2c1', '>3% wt %'),
  ('C=CC(=O)OCCNC(=O)OCCN(CC)c1ccc2c(-c3ccccc3S(=O)(=O)[N-]S(=O)(=O)C(F)(F)F)c3cc/c(=[N+](/CC)CCOC(=O)NCCOC(=O)C=C)cc-3oc2c1', '>5% wt %'),
  ('C=C(C)C(=O)OCCNC(=O)OCCN(CC)c1ccc2c(-c3ccccc3S(=O)(=O)[O-])c3cc/c(=[N+](\CC)c4ccccc4)cc-3oc2c1', '>3% wt %');

Please examine the following record next.
Just so you know, measured Amount of dissolved compound (wt %), Cyclohexanone for "C=C(C)C(=O)OCCNC(=O)OCCN(CC)c1ccc2c(-c3ccccc3S(=O)(=O)[O-])c3cc/c(=[N+](/CC)CCOC(=O)NCCOC(=O)C(=C)C)cc-3oc2c1" came out at >5% wt %

All figures here come from patent US10101655B2.
